This section presents compounds with their documented growth inhibition values.
- assay-explanation: NCI Yeast Anticancer Drug Screen. Data for the sgs1 strain (AID 173);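 also: 0% = growth of vehicle-only control cultures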
- condition-set: S. cerevisiae sgs1 mutant, at 1.2 µM, stronger effect = higher value
This is part of a sample that, as a whole, favours compounds with a hit. Of some 79,000 tested, about 15% had one in any assay.
Respond numerically; units are % and should not be typed.

Read the entry "CCOC(=O)C(C(=O)OCC)=P(c1ccccc1)(c1ccccc1)c1ccccc1" and write its reported growth inhibition. 0

Read the entry "Cc1cc2cc3cc(C)c(N)cc3nc2cc1N" and write its reported growth inhibition. -43

Read the entry "CCOC(=O)c1[nH]n(-c2ccccc2)c(=O)c1C=NC(=S)C(N)=S" and write its reported growth inhibition. 21

Read the entry "O=C1NC(=O)c2ccc([N+](=O)[O-])c3cccc1c23" and write its reported growth inhibition. 41

Read the entry "Cc1cc(C(C)(C)C)c(OCCCN2CCOCC2)c(C(C)(C)C)c1" and write its reported growth inhibition. 0

* * *

- assay-explanation: NCI Yeast Anticancer Drug Screen. Data for the rad52 strain (AID 147);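 also: 0% = growth of vehicle-treated control cultures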
- condition-set: S. cerevisiae rad52 mutant growth inhibition; at 100.0 µM
This is part of a sample that, as a whole, favours compounds with a hit. Of some 79,000 tested, about 15% had one in any assay. Activity calls are given as the source filed them. No stated cut-off is given here; in the data, active means growth inhibition above about 70%; inactive means the rest.
Respond using exactly one of the listed classes: active, inactive

Some solved entries appear below for comparison.
C=C1CC(CCCl)(c2ccccc2)OC1=O (centres undefined)	active
C=C(Cl)COC(=O)Nc1cccc(Cl)c1	active
COc1ccc(C(=O)C(CN(C)C)CN(C)C)cc1	inactive
CC(C)=NOC(=O)Nc1ccc(Cl)cc1	inactive

# ---- query compound ----
State the result this test recorded for "COc1ccc(N=CN(C)C)c(C)c1" . active

* * *

This section presents compounds with their documented growth inhibition values.
- assay-explanation: NCI Yeast Anticancer Drug Screen. Data for the bub3 strain (AID 167)
- condition-set: S. cerevisiae bub3 mutant strain, at 1.2 µM, stronger effect = higher value
The panel holds about 79,000 compounds, 15% with a hit somewhere; the sample as a whole holds those more often.
Respond numerically; units are % and should not be typed.

Known growth inhibition results, listed for orientation:
CCCCCCSc1ncnc2[nH]ncc12	4
CC1OC(O[C@H]2/C=C/C=C/C=C/C=C/C=C/C=C/C=C/[C@H](C)[C@@H](O)[C@@H](C)[C@H](C)OC(=O)C[C@H](O)C[C@H](O)CC[C@@H](O)[C@H](O)C[C@H](O)C[C@]3(O)C[C@H](O)[C@@H](C(=O)O)[C@H](C2)O3)C(O)C(N)C1O (stereo not given in full)	-19
COC(=O)/C=C(/CC(=O)OC)C(=O)OC	-4
CCCCCCCCCCCCCCCCOP(=O)(O)OCC(N)C(=O)O (stereo not given)	-13
c1ccc2cc(NCNc3ccc4ccccc4c3)ccc2c1	0

Read the entry "Cc1sc2ccc3ccccc3c2[n+]1C" and write its reported growth inhibition. -2

Read the entry "NC1CCCCC1N.Nc1c(N=Nc2ccc(-c3ccc(N=Nc4cc(S(=O)(=O)[O-])c5ccccc5c4N)cc3)cc2)cc(S(=O)(=O)[O-])c2ccccc12.[OH3+].[OH3+].[Pt+4]" and write its reported growth inhibition. -1

* * *

This section presents compounds with their documented growth inhibition values.
- assay-explanation: NCI Yeast Anticancer Drug Screen. Data for the mlh1 strain (AID 171);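 also: 0% = growth of vehicle-treated control cultures of the same strain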
- condition-set: S. cerevisiae mlh1 strain growth inhibition; at 33.0 µM; stronger effect = higher value
Compounds without any hit were thinned out: in the full panel of roughly 79,000, 15% have a hit.
Respond numerically; units are % and should not be typed.

Known growth inhibition results, listed for orientation:
CCN(CC)CCN(C)CCc1ccc(Br)cc1	60
C[C](C)(C)[Ge]([O][Ge]([c]1ccccc1)[c]1ccccc1)([O][Ge]([c]1ccccc1)[c]1ccccc1)[C](C)(C)C	66
O=C(NNc1ccccc1)c1ccc(Cl)c(Cl)c1	8

Read the entry "Cn1c(-c2ccc(/C=N\N3CCN(/N=C/c4ccc(-c5c[n+]6ccccc6n5C)cc4)CC3)cc2)c[n+]2ccccc12" and write its reported growth inhibition. 57

Read the entry "Cc1cc(N(CCOS(C)(=O)=O)CCOS(C)(=O)=O)ccc1C=Nc1ccc(-c2csc(-c3ccccc3)n2)c(Cl)c1" and write its reported growth inhibition. 97

Read the entry "CC(C)OC(=O)c1ccc(CCc2cc(O)c(Br)cc2O)cc1" and write its reported growth inhibition. 72

Read the entry "CCOC(=O)C#Cc1ccc([N+](=O)[O-])cc1" and write its reported growth inhibition. -21

Read the entry Nc1nc2ccc(NCc3ccc(C(=O)NC(CCC(=O)O)C(=O)O)cc3)cc2c(=O)[nH]1 (stereo not given) and write its reported growth inhibition. 11

Read the entry "NNC(=O)CCc1cc2ccccc2c2ccccc12" and write its reported growth inhibition. 38

Read the entry OC(CCNCc1ccccc1)c1ccc2ccccc2c1 (stereo not given) and write its reported growth inhibition. 80

* * *

- assay-explanation: NCI Yeast Anticancer Drug Screen. Data for the rad52 strain (AID 147);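 also: 0% = growth of vehicle-treated control cultures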
- condition-set: S. cerevisiae rad52 mutant growth inhibition; at 100.0 µM; stronger effect = higher value
About 79,000 compounds went through this panel and 15% of them were active in at least one assay; those are over-represented in the sample as a whole. Calls of active or inactive are those of the source. Rule as the data show it: active = growth inhibition above about 70%; inactive = the rest.
This section presents compounds with their documented growth inhibition values.

COc1ccc(C/C=N/Nc2ccc([N+](=O)[O-])cc2)cc1OC	42% (inactive)
CC(C)c1ccc(NC(=S)NC(=O)c2ccccc2)cc1	26% (inactive)
COC(C(O)CO)C(O)C(O)C(=O)NNc1ccccc1 (configuration not stated)	93% (active)
Cc1cc(S(=O)(=O)Nc2nnc3cnc4ccccc4n23)c(S)cc1Cl	43% (inactive)
O=C(NO)Nc1cc(Cl)cc(Cl)c1	97% (active)

We next turn to a different compound, shown below.
Read the entry "Nc1ccc2c(c1)C(=O)c1ccc(F)cc1-2" and write its reported growth inhibition. 53% (inactive)

* * *

- assay-explanation: NCI Yeast Anticancer Drug Screen. Data for the rad14 strain (AID 159);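 also: 0% = growth of vehicle-treated control cultures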
- condition-set: S. cerevisiae rad14 strain growth inhibition; at 1.2 µM
The panel holds about 79,000 compounds, 15% with a hit somewhere; the sample as a whole holds those more often. The source made the active and inactive calls. Rule as the data show it: active = growth inhibition above about 70%; inactive = the rest.
Respond using exactly one of the listed classes: active, inactive

Some solved entries appear below for comparison.
O=[N+]([O-])c1ccc2c(c1)/C(=N/N=C1c3ccccc3Cc3ccccc31)c1cc([N+](=O)[O-])cc([N+](=O)[O-])c1-2	inactive
COc1c(O)c(C=O)c(Br)c(C=O)c1O	inactive
COc1cccc2c1C(=O)c1c(O)c3c(c(O)c1C2=O)CC(O)(C(O)CO)CC3OC1CC(N2CCOCC2)C(O)C(C)O1 (stereo not given)	active
O=C1c2cccnc2C(=O)C2C3C=CC(C3)C12 (stereo not given)	inactive
Cn1c(-c2ccc(/C=N\N3CCN(/N=C/c4ccc(-c5c[n+]6ccccc6n5C)cc4)CC3)cc2)c[n+]2ccccc12	inactive

State the result this test recorded for "COC(=O)Oc1cc(Cl)c(Cl)cc1Cl" . inactive

State the result this test recorded for "NC(=O)C(=O)NNc1ccccc1" . inactive

State the result this test recorded for C=C1CCC(O)C/C1=C/C=C1\CCCC2(C)C1CCC2C(C)CCCC(C)C (stereo not given) . inactive

State the result this test recorded for "CC(C)(C)C1=CC(=CC=C2C=CN(CCCCCCCCCCCO)C=C2)C=C(C(C)(C)C)C1=O" . inactive

State the result this test recorded for "O=C1NC(SSC2=NNC3(C(=O)N2)c2ccccc2-c2ccccc23)=NNC12c1ccccc1-c1ccccc12" . inactive

* * *

- assay-explanation: NCI Yeast Anticancer Drug Screen. Data for the rad14 strain (AID 159);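 also: 0% = growth of vehicle-treated control cultures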
- condition-set: S. cerevisiae rad14 strain growth inhibition; at 33.0 µM
The panel holds about 79,000 compounds, 15% with a hit somewhere; the sample as a whole holds those more often. Calls of active or inactive are those of the source. Cut-off read from the data, not from the text of the source: active = growth inhibition above about 70%; inactive = the rest.
Respond using exactly one of the listed classes: t (active), f (inactive)

C/C(=N\Nc1ccc([N+](=O)[O-])cc1[N+](=O)[O-])c1sc(-n2nc(-c3ccccc3)cc2-c2ccccc2)nc1C	f
O=C1c2ccccc2C(=O)c2cc(CCl)ccc21	f

State the result this test recorded for "Cc1csc(=S)n1OC(=O)NC1CCCCC1" . t

State the result this test recorded for "CCN(CC)CCN(C)CCc1ccc(Br)cc1" . t

State the result this test recorded for COC(C(O)CO)C(O)C(O)C(=O)NNc1ccccc1 (configuration not stated) . f

* * *

This section presents compounds with their documented growth inhibition values.
- assay-explanation: NCI Yeast Anticancer Drug Screen. Data for the rad14 strain (AID 159);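 also: 0% = growth of vehicle-treated control cultures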
- condition-set: S. cerevisiae rad14 strain growth inhibition; at 33.0 µM; stronger effect = higher value
The panel holds about 79,000 compounds, 15% with a hit somewhere; the sample as a whole holds those more often.
Respond numerically; units are % and should not be typed.

Read the entry "Cc1nc2ccc(N=NN(C)C)cc2[nH]1" and write its reported growth inhibition. 15

Read the entry CCCCCCC(O)CNCc1ccnc2ccc(OC)cc12 (stereo not drawn) and write its reported growth inhibition. 33

Read the entry "Cc1cc(S(=O)(=O)Nc2nnc3cnc4ccccc4n23)c(S)cc1Cl" and write its reported growth inhibition. 21

Read the entry "CC1=CC(=C(c2ccc(N)cc2)c2ccc(N)cc2)C=CC1=N" and write its reported growth inhibition. -4

Read the entry "O=C1C(=O)c2ccccc2C(O)=C1C(C1=C(O)c2ccccc2C(=O)C1=O)c1ccc(Cl)cc1" and write its reported growth inhibition. 32

Read the entry "C=C(Cl)COC(=O)Nc1cccc(Cl)c1" and write its reported growth inhibition. 39

Read the entry "Cc1cc2c3ccccc3c3ccccc3c2nn1" and write its reported growth inhibition. 15

Read the entry CC(=O)OC1CCC2(C)C(=CC(C3C=C4CC(OC(C)=O)CCC4(C)C4=C3C3CC5OC6(CCC(C)CO6)C(C)C5C3(C)CC4)C3=C2CCC2(C)C3CC3OC4(CCC(C)CO4)C(C)C32)C1 (stereo not drawn) and write its reported growth inhibition. 13

Read the entry Cc1ccc(NC(=O)/C(CC2N=c3c(ccc4c(O)c5ccccc5c(O)c34)=NC2O)=N/NC(C)(C)C)cc1 (stereo not drawn) and write its reported growth inhibition. 0

Read the entry "O=C(/C=C(/c1ccccc1)N1CCCCC1)c1ccccc1" and write its reported growth inhibition. 30

Read the entry "Cc1ccc2nc(-c3cccc([N+](=O)[O-])c3)oc(=O)c2c1" and write its reported growth inhibition. -19

Read the entry "CC(C)c1ccc(NC(=S)NC(=O)c2ccccc2)cc1" and write its reported growth inhibition. 42

Read the entry "CN1CCN(C(=O)/C=C/C(=O)c2ccccc2)CC1" and write its reported growth inhibition. 40

Read the entry "CC(C)=NOC(=O)Nc1ccc(Cl)cc1" and write its reported growth inhibition. -25

Read the entry O=C(NNc1ccccc1)C(O)C(O)C(O)C(O)C(O)CO (stereo not drawn) and write its reported growth inhibition. 20

Read the entry "COc1ccc(C/C=N/Nc2ccc([N+](=O)[O-])cc2)cc1OC" and write its reported growth inhibition. 25

Read the entry "Cc1ccc2c3ccc4c(c3n(C)c2c1)C(=O)C=CC4=O" and write its reported growth inhibition. -6

Read the entry "c1ccc(-c2cnc3ccccc3c2)cc1" and write its reported growth inhibition. 18

Read the entry "COC1=C(N)C(=O)c2nc(-c3nc(C(=O)O)c(C)c(-c4ccc(OC)c(OC)c4O)c3N)ccc2C1=O" and write its reported growth inhibition. 98

Read the entry "CN(C)/C=C/c1nnc([N+](=O)[O-])s1" and write its reported growth inhibition. 79

Read the entry "Cc1ccccc1N=C(NO)c1ccccc1" and write its reported growth inhibition. 29

Read the entry "S=c1sc2c(s1)SCCS2" and write its reported growth inhibition. -1

Read the entry C[Si](C)(C)/C=C/CCNC(C#N)c1ccccc1 (stereo not drawn) and write its reported growth inhibition. 52
